- Test system: PCT
- TEST SUMMARY: Signal-to-noise ratio and linear range for PCT detection, purified fusion proteins (Example 3)
- Type: biochemical, human
- RUN CONDITIONS: large subunit 100 nM, small subunit fusion 180 nM; CTZ-h 25 µM, 140 s
Param threshold (10) applies to Signal-to-noise ratio at 1000 pg/ml; output yes (1) when value >= threshold, no (0) when value < threshold.

| RESIDUE SEQUENCE | SUBJECT OF TEST | CLASSIFICATION |
| --- | --- | --- |
| VDGWRLHEKIS [RA141] | PCT | no (0) |
| VEGYRLFDRKS [RB073] | PCT | yes (1) |
| VSGWRIHEKIS [RA120] | PCT | yes (1) |
| VEGYRLFNKEW [RB284] | PCT | no (0) |
| VEGYRLFEKVW [RB085] | PCT | yes (1) |
| VEGWRLHEKIS [RA116] | PCT | yes (1) |
| VTGYRLFEEIL [P114, reference compound] | PCT | no (0) |
| VEGYRLFDRKL [RB135] | PCT | yes (1) |
| VEGYRLFDKKW [RB239] | PCT | yes (1) |

---

- Test system: PCT
- TEST SUMMARY: Luciferase dual-antibody complementary activation assay for PCT detection, clone supernatants, retest with CTZ-h (Example 1)
- Assay type: biochemical, human
- RUN CONDITIONS: luminescence signal value, background control PBSAD without PCT; retest CTZ-h 25 µM, read after 60 s
Param threshold (1000) applies to PCT-; output 1.0 when value >= threshold, 0.0 when value < threshold.

| RESIDUE SEQUENCE | CLASSIFICATION |
| --- | --- |
| VTGYRLFEEIL [P114, reference compound] | 0.0 |
| VEGYRLFDRKL [RB212] | 0.0 |
| VEGYRLFEKKL [RB149] | 1.0 |
| VEGYRLFNRKS [RB252] | 1.0 |
| VEGYRLFNRKW [RB223] | 1.0 |
| VEGYRLFERIW [RB113] | 1.0 |
| VEGYRLFDKKW [RB239] | 0.0 |
| VEGYRLFDRKW [RB186] | 0.0 |
| VEGYRLFEKVW [RB172] | 1.0 |
| VSGWRIHEKIS [RA120] | 1.0 |
| VEGYRLFERKW [RB276] | 1.0 |
| VDGWRLHEKIS [RA141] | 0.0 |
| VEGYRLFERKS [RB097] | 1.0 |
| VEGYRLFNEKS [RB195] | 1.0 |
| VEGYRLFERKS [RB033] | 1.0 |
| VEGYRLFEKVW [RB085] | 1.0 |
| VEGYRLFERKL [RB157] | 1.0 |
| VEGYRLFKREL [RB152] | 0.0 |
| VEGYRLHEKIS [RA128] | 0.0 |
| VEGYRLFERIW [RB240] | 1.0 |
| VEGYRLFDRKL [RB135] | 0.0 |
| VEGYRLFNKKS [RB054] | 1.0 |
| VEGYRLFNRVG [RB122] | 1.0 |
| VEGYRLFNKEW [RB284] | 0.0 |
| VEGWRLHEKIS [RA116] | 1.0 |
| VEGYRLFDRKS [RB073] | 0.0 |
| VEGYRLFNRVS [RB027] | 1.0 |
| VEGYRLFDRKL [RB209] | 1.0 |
| VEGYRLFNRKS [RB075] | 1.0 |
| VEGYRLFERVL [RB150] | 1.0 |
| VEGYRLFDRVW [RB128] | 0.0 |
| VEGYRLFERKW [RB035] | 1.0 |

Data origin: patent EP4700040A1
